target: KCNQ2/3 channels (Homo sapiens, UniProt O43525+O43526); assay: Two-electrode voltage-clamp of KCNQ2/3 channels expressed in Xenopus laevis oocytes; type: cell-based; details: KCNQ2/3; 10 µM

- compound: "CCCCCCCC/C=C\\CCCCCCCC(N)=O [Oleamide, oleamide]"
  measure unit: "mV"
  Normalized tail current V0.5: -39.2
- compound: "O=C(O)/C=C/CC(=O)O [Glutaconic Acid, glutaconic acid]"
  measure unit: "mV"
  Normalized tail current V0.5: -42.9
- compound: "Oc1ccccc1S [2-Mercaptophenol, 2-mercaptophenol]"
  measure unit: "mV"
  Normalized tail current V0.5: -43.7
- compound: "CC(=O)c1c(O)c(C)c(O)c(Cc2c(O)c3c(c(C(=O)/C=C/c4ccccc4)c2O)OC(C)(C)C=C3)c1O [MTX, mallotoxin]"
  measure unit: "mV"
  Normalized tail current V0.5: -56.2
- compound: "CCCCCCCCCCCCCCCC(=O)O [Palmitic Acid, palmitic acid]"
  measure unit: "mV"
  Normalized tail current V0.5: -44.9
- compound: "CCOC(=O)Nc1ccc(NCc2ccc(F)cc2)cc1N [Retigabine, retigabine, reference compound]"
  measure unit: "mV"
  Normalized tail current V0.5: -61.4

* * *

biological target: KCNQ3* (KCNQ3-A315T) (Homo sapiens, UniProt O43525, A315T); assay: cell-based
Sequence (O43525 whole entry A315T, looked up): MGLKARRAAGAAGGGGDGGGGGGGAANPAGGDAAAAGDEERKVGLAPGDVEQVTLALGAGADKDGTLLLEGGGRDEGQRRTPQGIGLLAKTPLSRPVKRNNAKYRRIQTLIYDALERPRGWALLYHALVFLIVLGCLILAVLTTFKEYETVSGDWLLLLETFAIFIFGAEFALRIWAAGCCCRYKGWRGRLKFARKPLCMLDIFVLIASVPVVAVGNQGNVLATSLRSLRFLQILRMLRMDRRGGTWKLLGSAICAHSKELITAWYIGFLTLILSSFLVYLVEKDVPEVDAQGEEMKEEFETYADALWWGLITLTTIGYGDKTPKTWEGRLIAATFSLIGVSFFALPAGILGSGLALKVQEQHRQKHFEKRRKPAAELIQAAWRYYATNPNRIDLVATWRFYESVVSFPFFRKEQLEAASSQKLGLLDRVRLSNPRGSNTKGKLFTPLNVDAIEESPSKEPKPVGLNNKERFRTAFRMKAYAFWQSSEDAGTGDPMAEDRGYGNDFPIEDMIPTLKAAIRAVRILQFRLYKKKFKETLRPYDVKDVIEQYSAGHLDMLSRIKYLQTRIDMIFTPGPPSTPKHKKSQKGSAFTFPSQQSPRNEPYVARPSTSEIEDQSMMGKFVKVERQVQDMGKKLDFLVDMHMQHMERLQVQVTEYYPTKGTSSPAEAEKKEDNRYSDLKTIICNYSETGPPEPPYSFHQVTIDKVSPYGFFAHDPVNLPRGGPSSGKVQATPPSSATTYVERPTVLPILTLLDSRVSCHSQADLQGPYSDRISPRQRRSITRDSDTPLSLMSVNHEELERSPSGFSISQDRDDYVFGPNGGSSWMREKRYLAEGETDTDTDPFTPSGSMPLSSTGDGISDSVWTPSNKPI
readout type: EC50 (µM)

- cpd smiles: "CC(=O)c1c(O)c(C)c(O)c(Cc2c(O)c3c(c(C(=O)/C=C/c4ccccc4)c2O)OC(C)(C)C=C3)c1O"
  readout type: "EC50"
  number: 13

* * *

Listing: Normalized tail current V0.5 of selected compounds
target: KCNQ2/3 channels (Homo sapiens, UniProt O43525+O43526); assay: Two-electrode voltage-clamp of KCNQ2/3 channels expressed in Xenopus laevis oocytes; format: cell-based; details: KCNQ2/3; 0.1 µM

- compound: "O=C(O)/C=C/CC(=O)O"
  measure unit: "mV"
  Normalized tail current V0.5: -41.2
- compound: "CCCCCCCC/C=C\\CCCCCCCC(N)=O [Oleamide, oleamide]"
  measure unit: "mV"
  Normalized tail current V0.5: -41.8
- compound: "CCCCCCCCCCCCCCCC(=O)O"
  measure unit: "mV"
  Normalized tail current V0.5: -44.3
- compound: "CC(=O)c1c(O)c(C)c(O)c(Cc2c(O)c3c(c(C(=O)/C=C/c4ccccc4)c2O)OC(C)(C)C=C3)c1O"
  measure unit: "mV"
  Normalized tail current V0.5: -47.8
- compound: "Oc1ccccc1S"
  measure unit: "mV"
  Normalized tail current V0.5: -43.4

* * *

Target: Q2/W265L-Q3 channels (Homo sapiens, UniProt O43525+O43526, W265L)
Assay: Two-electrode voltage-clamp of Q2/W265L-Q3 mutant channels in Xenopus oocytes
Assay type: cell-based
Details: EC50, Q2/W265L-Q3; calculated from dose responses
Excerpt: cRNA transcripts encoding human KCNA1, KCNQ1, KCNQ2, KCNQ3, KCNQ4, or KCNQ5 were generated by in vitro transcription using the T7 polymerase message machine kit (Thermo Fisher Scientific), after vector linearization, from cDNA sub-cloned into plasmids incorporating X. laevis β-globin 5′ and 3′ UTRs flanking the coding region to enhance translation and cRNA stability. cRNA was quantified by spectrophotometry. […]
pEC50: −log10 of the molar value.
readout type: pEC50

- cpd smiles: "CC(=O)c1c(O)c(C)c(O)c(Cc2c(O)c3c(c(C(=O)/C=C/c4ccccc4)c2O)OC(C)(C)C=C3)c1O"
  readout type: "pEC50"
  number: 4.15

Taken from paper PMC6155021.
